system: Cavia porcellus; assay: In vivo activity for protection against histamine induced bronchoconstriction in guinea pig after 5 min of intravenous administration (2 mg/kg); format: functional
Please go through the items and note down their Protection.
Please state the figure in %; there is no need to write the unit.

Noted for CCCCCCCCCCCCCCCCCCOCC(COC(=O)CCC[n+]1ccccc1)OCC.[Cl-] (stereo not given) : its Protection reads 8

Noted for CCCCCCCCCCCCCCCCCCOCC(COC(=O)CCCC[N+](C)(C)C)OCC.[I-] (stereo not given) : its Protection reads 0

Noted for CCCCCCCCCCCCCCCCCCOC[C@@H](COC(=O)CCCC[N+](C)(C)C)OC(C)=O.[I-] : its Protection reads 0

Noted for CCCCCCCCCCCCCCCCCCNC(=O)OCC(COC(=O)CCCC[N+](C)(C)C)OC(C)=O.[I-] (stereo not given) : its Protection reads 17

Noted for CCCCCCCCCCCCCCCCCCOC[C@H](COC(=O)CCCC[N+](C)(C)C)OC(C)=O.[I-] : its Protection reads 20
